Measured Relative potency, listed per entry.
Organism: Rattus norvegicus
Test: Activity relative to fenclofenac determined in adjuvant arthritis test
Assay type: functional

| COMPOUND | Relative potency |
| --- | --- |
| CNc1cccc(Cl)c1Oc1ccccc1CC(=O)O | 15 |
| CNc1cc(Cl)cc(Cl)c1Oc1ccccc1CC(=O)OC | 2.5 |
| Cc1cc(Cl)cc2c1Oc1ccccc1CCN2 | 0.9 |
| Cc1cc(Cl)cc([N+](=O)[O-])c1Oc1ccccc1CC(=O)O | 3.3 |
| O=C(O)Cc1ccccc1Oc1c([N+](=O)[O-])cc(Cl)c(Cl)c1Cl | 0.6 |
| C[N+]1([O-])CCc2ccccc2Oc2c(Cl)cccc21 (configuration not stated) | 0.7 |
| Cc1cc(Cl)c2c(c1)NCCc1cc(Cl)ccc1O2 | 0.5 |
| CN1CCc2ccccc2Oc2c(Cl)cccc21 | 1.4 |
| CCc1cc(Cl)cc(N)c1Oc1ccccc1CC(=O)O | 2.8 |
| CN1CCc2ccccc2Oc2c(Cl)cc(Cl)cc21 | 2.4 |
| CNc1cc(Cl)cc(C)c1Oc1ccccc1CC(=O)O | 2.8 |
| CNc1cccc(Cl)c1Oc1ccccc1CCO | 5 |

* * *

Tested on: Rattus norvegicus
Assay: Percent reduction in swelling of the left hind paw in rat determined in adjuvant arthritis test, 50 mg/kg dose perorally
Format: functional
Settings: route oral
Lab note: class by Reduction, see bin A (below 10%), bin B (10% to below 20%), bin C (20% or more)

| COMPOUND | TARGET OR SYSTEM | LABEL |
| --- | --- | --- |
| C[N+]1([O-])CCc2ccccc2Oc2c(Cl)cc(Cl)cc21 (centres undefined) | Rattus norvegicus | bin C |
| c1ccc2c(c1)CCNc1ccccc1O2 | Rattus norvegicus | bin A |
| Cc1ccc2c(c1)CCNc1cc(Cl)cc(Cl)c1O2 | Rattus norvegicus | bin B |
| CCN(CC)C(=O)Cc1ccccc1Oc1c(N)cccc1Cl | Rattus norvegicus | bin A |
| CCC(C)c1cc(Cl)c2c(c1)NCCc1cc(C)ccc1O2 (centres undefined) | Rattus norvegicus | bin B |
| Clc1ccc2c(c1)Oc1ccccc1CCN2 | Rattus norvegicus | bin A |
| O=C(c1ccc(Cl)cc1)N1CCc2ccccc2Oc2c(Cl)cc(Cl)cc21 | Rattus norvegicus | bin A |
| NC(=O)Cc1ccccc1Oc1c(N)cccc1Cl | Rattus norvegicus | bin B |
| Cc1ccc2c(c1)CCNc1cccc(Cl)c1O2 | Rattus norvegicus | bin C |
| Cc1ccc2c(c1)CCNc1cc(Cl)c(Cl)cc1O2 | Rattus norvegicus | bin A |
| Cc1ccc2c(c1)CCN(C)c1cccc(Cl)c1O2 | Rattus norvegicus | bin B |
| O=C(Cc1ccccc1Oc1c(Cl)cccc1[N+](=O)[O-])NO | Rattus norvegicus | bin C |
| Cc1c(Cl)c(C)c2c(c1Cl)Oc1ccccc1CCN2 | Rattus norvegicus | bin A |
| O=C(Cc1ccccc1Oc1c(Cl)cccc1[N+](=O)[O-])OC1OC(=O)c2ccccc21 (centres undefined) | Rattus norvegicus | bin C |
| CN1CCc2ccccc2Oc2c(Cl)cc(Cl)cc21 | Rattus norvegicus | bin C |
| CC(C)(C)OC(=O)Cc1ccccc1Oc1c(Cl)cccc1[N+](=O)[O-] | Rattus norvegicus | bin C |
| CN1CCc2ccccc2Oc2c(Cl)cccc21 | Rattus norvegicus | bin C |
| COc1cc(Cl)c2c(c1)NCCc1ccccc1O2 | Rattus norvegicus | bin B |
| Clc1ccc2c(c1)CCNc1cccc(Cl)c1O2 | Rattus norvegicus | bin B |
| Clc1ccc2c(c1)CCNc1c(Cl)ccc(Cl)c1O2 | Rattus norvegicus | bin B |
| Clc1ccc2c(c1)NCCc1ccccc1O2 | Rattus norvegicus | bin A |
| C/C=C/CN1CCc2ccccc2Oc2c(Cl)cc(Cl)cc21 | Rattus norvegicus | bin C |
| CCC[N+]1([O-])CCc2ccccc2Oc2c(Cl)cc(Cl)cc21 (centres undefined) | Rattus norvegicus | bin C |
| O=C(Cl)N1CCc2ccccc2Oc2c(Cl)cc(Cl)cc21 | Rattus norvegicus | bin A |
| C=CCN1CCc2ccccc2Oc2c(Cl)cc(Cl)cc21 | Rattus norvegicus | bin B |
| CCCN1CCc2ccccc2Oc2c(Cl)cc(Cl)cc21 | Rattus norvegicus | bin C |
| Clc1ccc2c(c1)CCNc1cc(Cl)cc(Cl)c1O2 | Rattus norvegicus | bin C |
| CN1CCc2cc(Cl)ccc2Oc2c(Cl)cccc21 | Rattus norvegicus | bin B |

Where do these numbers come from? They come from ChEMBL document CHEMBL1122891.
